# pIC50 listing for each entry below
# Test target: UniProtKB Q92731
pIC50: −log10 of the molar value.
Reported metric: pIC50

{"Smiles input": "Oc1ccc([C@@H]2Sc3cc(O)c(Cl)cc3O[C@@H]2c2ccc(OCCN3CCCCC3)cc2)cc1", "Recorded measurement": 7.14}
{"Smiles input": "Oc1cccc([C@H]2Sc3cc(O)ccc3O[C@H]2c2ccc(OCCN3CCCCC3)cc2)c1", "Recorded measurement": 6.94}
{"Smiles input": "Oc1cccc([C@H]2Sc3cc(O)ccc3O[C@H]2c2ccc(OCCNC3CCCCCC3)cc2)c1", "Recorded measurement": 6.99}

---

This document collects IC50 values reported for Estrogen receptor beta (Homo sapiens, UniProt Q92731).

{"Compound": "Oc1ccc2c(c1)SC(c1ccccc1)C(c1ccc(OCCN3CCCCC3)cc1)O2 (configuration not stated)", "Test target": "Estrogen receptor beta (Homo sapiens, UniProt Q92731)", "IC50": "0.3 µM"}
{"Compound": "Cc1cc2c(cc1O)O[C@H](c1ccc(OCCN3CCCCC3)cc1)[C@H](c1ccc(O)cc1)S2", "Test target": "Estrogen receptor beta (Homo sapiens, UniProt Q92731)", "IC50": "0.595 µM"}
{"Compound": "Oc1ccc([C@@H]2Sc3cc(O)c(F)cc3O[C@@H]2c2ccc(OCCN3CCCCC3)cc2)cc1", "Test target": "Estrogen receptor beta (Homo sapiens, UniProt Q92731)", "IC50": "0.413 µM"}
{"Compound": "CC1CCN(CCOc2ccc([C@@H]3Oc4ccc(O)cc4S[C@@H]3c3cccc(O)c3)cc2)CC1", "Test target": "Estrogen receptor beta (Homo sapiens, UniProt Q92731)", "IC50": "0.109 µM"}
{"Compound": "Oc1ccc([C@@H]2Sc3ccc(O)cc3O[C@@H]2c2ccc(OCCN3CCCCC3)cc2)cc1", "Test target": "Estrogen receptor beta (Homo sapiens, UniProt Q92731)", "IC50": "0.0444 µM"}
{"Compound": "CN(C)CCOc1ccc([C@@H]2Oc3ccc(O)cc3S[C@@H]2c2cccc(O)c2)cc1", "Test target": "Estrogen receptor beta (Homo sapiens, UniProt Q92731)", "IC50": "0.129 µM"}
{"Compound": "COc1ccc(C2Sc3cc(O)ccc3OC2c2ccc(OCCN3CCCCC3)cc2)cc1 (configuration not stated)", "Test target": "Estrogen receptor beta (Homo sapiens, UniProt Q92731)", "IC50": "0.792 µM"}

From: ChEMBL document CHEMBL1146754
